Target: Voltage-gated inwardly rectifying potassium channel KCNH2 (Homo sapiens) (UniProt Q12809)
Sequence (Q12809 whole entry, looked up): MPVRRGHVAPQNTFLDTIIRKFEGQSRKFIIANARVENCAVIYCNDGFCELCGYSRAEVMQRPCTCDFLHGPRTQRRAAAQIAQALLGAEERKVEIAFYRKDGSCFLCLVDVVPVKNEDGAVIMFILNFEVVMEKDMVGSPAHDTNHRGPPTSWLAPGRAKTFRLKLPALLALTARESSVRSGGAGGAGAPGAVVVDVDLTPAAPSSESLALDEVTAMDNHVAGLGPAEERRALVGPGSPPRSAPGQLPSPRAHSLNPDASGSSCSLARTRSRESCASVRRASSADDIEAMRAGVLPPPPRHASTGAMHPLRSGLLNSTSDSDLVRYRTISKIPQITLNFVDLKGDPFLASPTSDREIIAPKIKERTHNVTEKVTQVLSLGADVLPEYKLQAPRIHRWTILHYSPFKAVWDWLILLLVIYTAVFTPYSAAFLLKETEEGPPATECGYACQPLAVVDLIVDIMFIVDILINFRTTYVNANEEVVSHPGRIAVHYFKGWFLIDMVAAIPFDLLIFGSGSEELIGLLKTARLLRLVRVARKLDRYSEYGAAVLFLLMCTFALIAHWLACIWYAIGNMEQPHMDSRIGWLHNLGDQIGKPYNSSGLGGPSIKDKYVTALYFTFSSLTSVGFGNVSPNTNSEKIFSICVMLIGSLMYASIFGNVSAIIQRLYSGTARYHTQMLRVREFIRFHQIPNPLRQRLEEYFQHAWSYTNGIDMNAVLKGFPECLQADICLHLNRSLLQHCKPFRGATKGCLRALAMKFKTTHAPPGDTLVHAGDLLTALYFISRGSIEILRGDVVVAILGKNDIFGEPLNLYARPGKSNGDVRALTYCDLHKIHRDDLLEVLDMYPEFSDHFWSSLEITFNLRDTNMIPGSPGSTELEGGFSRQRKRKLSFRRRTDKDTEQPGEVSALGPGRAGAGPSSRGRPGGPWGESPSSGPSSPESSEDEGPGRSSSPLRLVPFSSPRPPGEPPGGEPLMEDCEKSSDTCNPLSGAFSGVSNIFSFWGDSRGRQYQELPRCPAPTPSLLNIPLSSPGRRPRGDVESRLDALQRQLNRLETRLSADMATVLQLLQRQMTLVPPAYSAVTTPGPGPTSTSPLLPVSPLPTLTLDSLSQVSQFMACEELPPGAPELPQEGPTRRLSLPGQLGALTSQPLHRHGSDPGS
Assay: qHTS Assay for Small Molecule Inhibitors of the Human hERG Channel Activity (AID 588834);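 also: lower thallium flux fluorescence means stronger hERG block; nearly all actives have a fitted effect of over 50% in size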
Conditions: U2OS BacMam hERG, FluxOR thallium flux fluorescence; series mostly up to 46.1 µM
Inconclusive results are not listed. Active and inactive are the calls of the source. Calls follow the shape of the dose curve; as a rule, active = well fitted inhibition curve with a large enough effect; inconclusive = small, poorly fitted or top-dose-only effect; inactive = flat fitted curve, though single readings scatter.
Outcome field: choose from Y for active, N for inactive

Completed entries (count: 5):
compound: C[C@]12O[C@H](C[C@]1(O)CO)n1c3ccccc3c3c4c(c5c6ccccc6n2c5c31)CNC4=O
classification: N

compound: CCCCCCCCCCCCCCCC(=O)OCC(COC(=O)CCCCCCCCCCCCCCC)OC(=O)CCCCCCCCCCCCCCC
classification: N

compound: CCOc1ccc2c(c1)C(C)=CC(C)(C)N2
classification: N

compound: CCOc1ccc(N=Nc2ccc(N)cc2N)cc1
classification: N

compound: CO[C@H]1C=CO[C@@]2(C)Oc3c(C)c(O)c4c(O)c(c5c(c4c3C2=O)=NC2(CCN(CC(C)C)CC2)N=5)NC(=O)/C(C)=C\C=C/[C@H](C)[C@H](O)[C@@H](C)[C@@H](O)[C@@H](C)[C@H](OC(C)=O)[C@@H]1C
classification: N

Prompt: Fill in: this test's call for CCOC(=O)C1=CC2(CC)CCCN3CCc4c(n1c1ccccc41)C32 (stereo not drawn) is ___
Completion: Y

Prompt: Could you do the same for NC(=O)c1ncn(C2OC(CO)C(O)C2O)n1 (stereo not drawn) , please?
Completion: N

Prompt: Now the compound `CC(C)=O`
Completion: N

Prompt: Next up: `CCC(=O)OCC(=O)[C@@]1(OC(=O)CC)[C@H](C)C[C@H]2[C@H]3[C@H]([C@@H](O)C[C@@]21C)[C@@]1(C)C=CC(=O)C=C1C[C@H]3Cl`
Completion: N

====

Tested on: Hek293T
Test: Primary qHTS to identify gynecologic anti-cancer compounds using libraries of approved drugs and bioactive compounds (AID 1345084); also: % is scaled to controls: 0 for no effect and ±100 for the full control effect; nearly all actives have a fitted effect of over 55% in size
Settings: Gynecologic cancer cell panel viability, ATPlite luminescence, 48 h, control line for the selectivity index; series mostly up to 57.5 µM
Results filed as inconclusive are left out. The source made the active and inactive calls. Calls follow the shape of the dose curve; as a rule, active = well fitted cell-killing curve with a large enough effect; inconclusive = small, poorly fitted or top-dose-only effect, or effect the other way; inactive = flat fitted curve, though single readings scatter.
test.readout: activity change, negative = cytotoxicity

Example cases with answers are listed next.
molecule: Cc1ncc([N+](=O)[O-])n1CC(O)CN1CCOCC1 (stereo unspecified)
experimental.system: Hek293T
activity change, negative = cytotoxicity: inactive

molecule: CC1CCC2C(C)(C)C(O)CCC2(C)C12Cc1c(O)cc3c(c1O2)CN(C(CCC(N)=O)C(=O)O)C3=O (stereo unspecified)
experimental.system: Hek293T
activity change, negative = cytotoxicity: inactive

molecule: C[C@@H]1O[C@@H](O[C@H]2[C@H](OC(=O)[C@]34CCC(C)(C)C[C@H]3C3=CCC5[C@@]6(C)C[C@H](O)[C@H](O[C@@H]7O[C@H](CO[C@@H]8OC[C@H](O)[C@H](O)[C@H]8O)[C@@H](O)[C@H](O)[C@H]7O)C(C)(C)C6CC[C@@]5(C)[C@]3(C)C[C@H]4O)OC[C@@H](O)[C@@H]2O)[C@H](O)[C@H](O[C@@H]2OC[C@](O)(CO)[C@H]2O)[C@H]1O[C@@H]1OC[C@H](O)[C@H](O[C@@H]2OC[C@@H](O)[C@H](O)[C@H]2O)[C@H]1O (stereo partly specified)
experimental.system: Hek293T
activity change, negative = cytotoxicity: 7.42% [at 6.55 µM] (inactive)

molecule: CC1CCC2(C)C(CC(O)C(O)C23CO3)C1(C)CCC1=CC(O)OC1=O (stereo unspecified)
experimental.system: Hek293T
activity change, negative = cytotoxicity: inactive

molecule: CCC(=O)NS(=O)(=O)c1ccc(-c2c(-c3ccccc3)noc2C)cc1
experimental.system: Hek293T
activity change, negative = cytotoxicity: inactive

Prompt: Need activity change, negative = cytotoxicity, item C/C=C/C=C/C=C/C(=O)O[C@@H]1C=C(CO)C(O)(C(=O)O)[C@@]2(C)CCCC(C)(C)[C@H]12 (stereo partly specified)
Completion: inactive
